Catalogue of conversion to 1,5-cz-[Ln(Lig)], Tm^III values
- ASSAY PROCEDURE: Formation of 1,5-cz-[Ln(Lig)] from Lig and Ln^III ions (metal dependent click-zip), MOPS/NaOH buffer pH 7.0, analytical HPLC (Charts 1, 2)
- DETAILS: Tm^III; after 1 week at 80° C.; MOPS/NaOH buffer pH 7.0
REPORTED ENDPOINT: conversion to 1,5-cz-[Ln(Lig)], Tm^III

| STRUCTURE AS SMILES | REPORTED ENDPOINT | EXPERIMENTAL RESULT |
| --- | --- | --- |
| [N-]=[N+]=NCc1cccc(CN2CCN(CC(=O)O)CCN(Cc3cccc(C#CC4CC4)n3)CCN(CC(=O)O)CC2)n1 | conversion to 1,5-cz-[Ln(Lig)], Tm^III | 94% |
| [N-]=[N+]=NCc1cccc(CN2CCN(CC(=O)O)CCN(Cc3cccc(C#CC45CC6CC(CC(C6)C4)C5)n3)CCN(CC(=O)O)CC2)n1 | conversion to 1,5-cz-[Ln(Lig)], Tm^III | 98% |
| C#Cc1cccc(CN2CCN(CC(=O)O)CCN(Cc3cc(C(=O)OC(C)C)cc(CN=[N+]=[N-])n3)CCN(CC(=O)O)CC2)n1 | conversion to 1,5-cz-[Ln(Lig)], Tm^III | 0% |
| C#Cc1cccc(CN2CCN(CCC(=O)O)CCN(Cc3cccc(CN=[N+]=[N-])n3)CCN(CCC(=O)O)CC2)n1 | conversion to 1,5-cz-[Ln(Lig)], Tm^III | 0% |
| C#CCNC(=O)CN1CCN(CC(=O)O)CCN(Cc2cc(-c3ccccc3)cc(CN=[N+]=[N-])n2)CCN(CC(=O)O)CC1 | conversion to 1,5-cz-[Ln(Lig)], Tm^III | 0% |
| C#Cc1cccc(CN2CCN(CC(=O)O)CCN(Cc3cc(Cl)cc(CN=[N+]=[N-])n3)CCN(CC(=O)O)CC2)n1 | conversion to 1,5-cz-[Ln(Lig)], Tm^III | 96% |
| CC(C)(C#Cc1cccc(CN2CCN(CC(=O)O)CCN(Cc3cccc(CN=[N+]=[N-])n3)CCN(CC(=O)O)CC2)n1)NC(=O)OC(C)(C)C | conversion to 1,5-cz-[Ln(Lig)], Tm^III | 1% |
| C#Cc1cccc(CN2CCN(CC(=O)O)CCN(Cc3cc(-c4ccccc4)cc(CN=[N+]=[N-])n3)CCN(CC(=O)O)CC2)n1 | conversion to 1,5-cz-[Ln(Lig)], Tm^III | 96% |
| C#Cc1cccc(CN2CCN(CC(=O)O)CCN(Cc3cc(C(F)(F)F)cc(CN=[N+]=[N-])n3)CCN(CC(=O)O)CC2)n1 | conversion to 1,5-cz-[Ln(Lig)], Tm^III | 93% |
